- Test system: Septoria tritici
- Assay remarks: Example G: in vivo 5 days preventive Septoria tritici test (wheat), comparison vs. WO-A 2010/146116
- Assay setup: rate of application 100 ppm, inoculated 5 days after spraying, evaluated 21 days after inoculation
// reported Efficacy in % for each item listed
# number only, unit % dropped from output

Below are worked cases with known answers.
>>> print(df.to_string())
                                   molecule       target_desc       property  readout_value
0  FC(F)(F)c1nc(Oc2ccc(Br)cc2)ccc1C1(Cn2cncn2)OCCO1  Septoria tritici  Efficacy in %             93
1  FC(F)(F)c1nc(Oc2ccc(S(F)(F)(F)(F)F)cc2)ccc1C1(Cn2cncn2)OCCO1  Septoria tritici  Efficacy in %             71
2  FC(F)(F)c1ccc(Oc2ccc(C3(Cn4cncn4)OCCO3)c(C(F)(F)F)n2)cc1  Septoria tritici  Efficacy in %            100
3  Clc1ccc(Oc2cc(Cl)c(C3(Cn4cncn4)OCCO3)cn2)cc1 [drawing 80, reference compound]  Septoria tritici  Efficacy in %             50

**Query** Using the record for FC(F)(F)c1nc(Oc2ccc(Cl)cc2)ccc1C1(Cn2cncn2)OCCO1 , report its Efficacy in %.
**Result** 86

====

// reported chromatographic logP for each item listed
- Assay remarks: LogP by HPLC on reversed phase columns (EEC directive 79/831 Annex V.A8)
- Format: physicochemical
- Assay setup: reversed phase HPLC column, method [a]: LC-UV, acidic range, 0.1% formic acid in water and acetonitrile as eluent

Below are worked cases with known answers.
>>> df
                                   compound  readout_value
0  FC(F)(F)c1nc(Oc2ccc(S(F)(F)(F)(F)F)cc2)ccc1C1(Cn2cncn2)OCCO1 [I.11]           3.54
1  FC(F)(F)c1nc(Oc2ccc(Cl)cc2)ccc1C1(Cn2cncn2)OCCO1 [I.04]           3.25
2  FC(F)(F)c1ccc(Oc2ccc(C3(Cn4cncn4)OCCO3)c(C(F)(F)F)n2)cc1 [I.14]           3.29
3  CCC1COC(Cn2cncn2)(c2ccc(Oc3ccc(C(F)(F)F)cc3)nc2C(F)(F)F)O1 (stereo not drawn) [I.07]           3.96
4  FC(F)(F)c1nc(Oc2ccc(Br)cc2)ccc1C1(Cn2cncn2)OCCO1 [I.02]           3.35
5  CC1(c2ccc(Oc3ccc(Cl)cc3)nc2C(F)(F)F)OCCO1 [XV.01]           4.44
6  CC1COC(Cn2cncn2)(c2ccc(Oc3ccc(Br)cc3)nc2C(F)(F)F)O1 (stereo not drawn) [I.16]           3.59
7  FC(F)(F)c1ccc(Oc2ccc(C3(Cn4nc[nH]c4=S)OCCO3)c(C(F)(F)F)n2)cc1 [I-S.01]           3.18

# next compound below
**Query** Using the record for FC(F)(F)c1nc(Oc2ccc(Cl)cc2)ccc1C1(Cn2nc[nH]c2=S)OCCO1 [I-S.02] , report its chromatographic logP.
**Result** 3.06

====

- Assay remarks: LogP by HPLC on reversed phase columns (EEC directive 79/831 Annex V.A8)
- Format: physicochemical
- Assay setup: method [a]: LC-UV, acidic range, 0.1% formic acid in water and acetonitrile as eluent
Property: LogP

                                   molecule  readout_value
0  CSc1ccc(Oc2ccc(C3(Cn4cncn4)OCCO3)c(C(F)(F)F)n2)cc1      3.05 ^[a]
1  CC1COC(Cn2cncn2)(c2ccc(Oc3ccc(Cl)cc3)nc2C(F)(F)F)O1 (single isomer, unassigned) [I.13]       3.48^[a]
2  CC1COC(Cn2cncn2)(c2ccc(Oc3ccc(C(F)(F)F)cc3)nc2C(F)(F)F)O1 (mixture of isomers)       3.62^[a]
3  FC(F)(F)Oc1ccc(Oc2ccc(C3(Cn4cncn4)OCCO3)c(C(F)(F)F)n2)cc1      3.46 ^[a]
4  CCCC1COC(Cn2cncn2)(c2ccc(Oc3ccc(Cl)cc3)nc2C(F)(F)F)O1 (mixture of isomers)       4.19^[a]
5  FC(F)(F)c1nc(Oc2ccc(Br)cc2)ccc1C1(Cn2cncn2)OCC(C(F)(F)F)O1 (racemic) [I.23]      3.80 ^[a]

**Query** Using the record for CC1COC(Cn2cncn2)(c2ccc(Oc3ccc(Cl)cc3)nc2C(F)(F)F)O1 (racemic) [I.09] , report its LogP.
**Result** 3.46^[a]
